Test: gradient 5% acetonitrile 3 min, to 50% in 2 min, to 85% in 15 min, held 3 min, 100 µL/min
Settings: column: Zorbax Extend-C18 2.1 x 50 mm; eluents: water / acetonitrile, 0.1% formic acid
ENDPOINT: RP-LC retention time (s)

As a guide, the following entries are already answered.
>>> df
                                   molecule              endpoint  unit_text  readout_value
0  O=C(CSc1ncc(-c2ccccc2)[nH]1)Nc1nc(-c2ccc(C3CCCCC3)cc2)cs1  RP-LC retention time          s           1420
1      Cc1cc(C(=O)Nc2nnc(-c3cccs3)o2)c(C)o1  RP-LC retention time          s            706
2  O=C(c1ccco1)N1CCN(S(=O)(=O)CCCOc2ccc3c(c2)OCO3)CC1  RP-LC retention time          s            764
3  Cc1ccc(CCC(=O)Nc2nc(-c3ccc4c(c3)NC(=O)C(C)O4)c(C)s2)cc1 (stereo not drawn)  RP-LC retention time          s           1010
4  CCOC(=O)N1CCN(C(=O)Cn2c(-c3cccn(C)c3=O)nc3ccccc32)CC1  RP-LC retention time          s            553
5  Cc1noc(C)c1S(=O)(=O)N1[C@H]2CC[C@@H]1c1cnc(-c3ccccc3)nc1C2  RP-LC retention time          s           1050
6  Cc1ccccc1NC(=O)C1CCN(S(=O)(=O)c2cc(-c3noc(C4CCC4)n3)cs2)CC1  RP-LC retention time          s           1060
7  O=C(NCc1ccc(Br)cc1)C1CCN(C(=O)c2cc(-c3ccncc3)n[nH]2)CC1  RP-LC retention time          s            618

[A] O=C(Nc1nnc(SCC(=O)N2CCc3ccccc32)s1)NC1CCCCC1
[B] COc1cc(C(c2nnnn2C(C)(C)C)N2CCN(c3ccccn3)CC2)cc(OC)c1OC (stereo not drawn)
Problem: Of the pair A and B , name the member with the lesser recorded RP-LC retention time. Response format: the label of the selected entry.
Solution: B
(B: 578 s, A: 839 s)

[1] CCc1cccc(NS(=O)(=O)c2cc(-c3[nH]ncc3C(=O)N3CCCCC3)oc2C)c1
[2] Cc1cccc(NS(=O)(=O)c2cc(-c3cc(C(F)(F)F)on3)sc2C)c1C
Problem: Of the pair 1 and 2 , name the member with the lesser recorded RP-LC retention time. Response format: the label of the selected entry.
Solution: 1

[P] CCOC(=O)c1ccccc1NC(=O)Cn1c(=O)n(-c2ccc(F)cc2)c(=O)c2c1cc(C)n2C
[Q] C=CCN1CCN(C(=O)C2=NN(c3ccc(C)cc3)c3ncccc3S2(=O)=O)CC1
Problem: Could you kindly indicate whether P or Q has the higher RP-LC retention time value? Response format: the label of the selected entry.
Solution: P

[A] Cc1cc(C2CCCN2C(=O)Nc2ccccc2Cl)no1 (stereo not drawn)
[B] CCOc1ccc(/C=C/C(=O)Nc2nc(-c3ccc(C)cc3)cs2)cc1OC
Problem: Could you kindly indicate whether A or B has the higher RP-LC retention time value? Response format: the label of the selected entry.
Solution: B
